Source of measurements: PubChem BioAssay (NCATS)

runDescription: qHTS assay for small molecule antagonists of peroxisome proliferator-activated receptor delta signaling (AID 588535);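 note: cells co-treated with a PPAR-delta agonist as stimulator during compound exposure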
reportedConditions: HEK293T PPARd-UAS-bla, beta-lactamase FRET ratio, 18 h; 460 nm channel
Results filed as inconclusive are left out.
attributeMeasured: max response

compound: CO[Si](CCCNCCN)(OC)OC
attributeMeasured: max response
valueObserved: 40.3%

compound: CC(C)C(=O)OC(=O)C(C)C
attributeMeasured: max response
valueObserved: 1.13%

compound: CC(=O)c1c(C)c([N+](=O)[O-])c(C(C)(C)C)c([N+](=O)[O-])c1C
attributeMeasured: max response
valueObserved: -16.8%

compound: COC(=O)c1c(Cl)nn(C)c1S(=O)(=O)NC(=O)Nc1nc(OC)cc(OC)n1
attributeMeasured: max response
valueObserved: -24.6%

compound: CCOC(=O)[C@H](C)Oc1ccc(Oc2nc3ccc(Cl)cc3o2)cc1
attributeMeasured: max response
valueObserved: 24.7%

compound: CSC(=O)c1cccc2nnsc12
attributeMeasured: max response
valueObserved: 21.6%

compound: CC(C)(C)c1n[nH]c(=O)n(N)c1=O
attributeMeasured: max response
valueObserved: -9.84%

compound: CCc1cccc(C)c1N(C(=O)CS(=O)(=O)O)[C@@H](C)COC
attributeMeasured: max response
valueObserved: 24.1%

compound: O=S(=O)(O)c1ccc(N=Nc2cc(S(=O)(=O)O)c3ccccc3c2O)c2ccccc12
attributeMeasured: max response
valueObserved: 26.6%

compound: C=C(C)C(=O)OCC[N+](C)(C)C
attributeMeasured: max response
valueObserved: 8.9%

compound: C=C(C)C(=O)OCCCCCCCCCCCC
attributeMeasured: max response
valueObserved: -35.9%

compound: CCCCCCCCCCCCCO
attributeMeasured: max response
valueObserved: 18.2%

compound: NN(c1ccccc1)c1ccccc1
attributeMeasured: max response
valueObserved: 23.6%

compound: C=CC(=O)OCC[N+](C)(C)C
attributeMeasured: max response
valueObserved: 35.3%

compound: O=S(=O)(O)c1ccc(N=Nc2c(O)ccc3cc(S(=O)(=O)O)ccc23)cc1
attributeMeasured: max response
valueObserved: -5.34%

compound: COC(=O)C1CCC(C(=O)OC)CC1 (stereo not given)
attributeMeasured: max response
valueObserved: 36.1%

compound: CCCCCCCCCCCCCCCC
attributeMeasured: max response
valueObserved: 55.6%

compound: C=C(C)C(=O)OCCOC(=O)C(=C)C
attributeMeasured: max response
valueObserved: -2.87%

compound: CCCC[O][Al]([O]CCCC)[O]CCCC
attributeMeasured: max response
valueObserved: -11.9%

compound: O=C(O)c1ccc(C(=O)O)c(C(=O)O)c1
attributeMeasured: max response
valueObserved: -62.8%

###

testSystem: Cytochrome P450 2C19 (Homo sapiens) (UniProt P33261)
Sequence (P33261 whole entry, looked up): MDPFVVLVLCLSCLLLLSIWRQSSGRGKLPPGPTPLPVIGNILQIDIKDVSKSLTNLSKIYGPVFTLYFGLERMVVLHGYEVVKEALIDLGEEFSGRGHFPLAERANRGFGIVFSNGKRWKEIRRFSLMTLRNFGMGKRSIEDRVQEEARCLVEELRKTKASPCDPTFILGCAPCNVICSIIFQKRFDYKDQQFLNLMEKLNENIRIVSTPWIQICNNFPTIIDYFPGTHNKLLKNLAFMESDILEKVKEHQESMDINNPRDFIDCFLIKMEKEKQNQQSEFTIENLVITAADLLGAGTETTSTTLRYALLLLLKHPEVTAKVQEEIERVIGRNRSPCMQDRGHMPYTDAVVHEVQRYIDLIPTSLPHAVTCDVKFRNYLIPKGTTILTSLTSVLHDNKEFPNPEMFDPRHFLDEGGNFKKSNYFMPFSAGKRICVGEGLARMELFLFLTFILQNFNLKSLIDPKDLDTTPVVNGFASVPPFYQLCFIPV
runDescription: qHTS Assay for Inhibitors and Substrates of Cytochrome P450 2C19 (AID 899); note: nearly all actives have a fitted effect of over 60% in size
reportedConditions: recombinant CYP2C19, luciferin-H EGE luminescence; series mostly up to 11.4 µM
Inconclusive results are not listed. Activity calls are given as the source filed them. Calls follow the shape of the dose curve; as a rule, active = well fitted inhibition curve with a large enough effect; inconclusive = small, poorly fitted or top-dose-only effect; inactive = no such curve, though single readings can be large or run the other way.
Outcome codes: True for active, False for inactive

compound: CC1Cc2c(COc3ccccc3)nc3c(c2CO1)CN(CCOc1ccccc1)CC3 (stereo not drawn)
testSystem: Cytochrome P450 2C19 (Homo sapiens) (UniProt P33261)
assignedClass: False
--
compound: COC(=O)CC1=COC2OCC3=CC[C@@H]1C32 (stereo partly drawn)
testSystem: Cytochrome P450 2C19 (Homo sapiens) (UniProt P33261)
assignedClass: False
--
compound: CC12C=C(/C=C/c3ccc(F)cc3)C(C)(C1)C(c1ccc(F)cc1)CC2=O (stereo not drawn)
testSystem: Cytochrome P450 2C19 (Homo sapiens) (UniProt P33261)
assignedClass: True
--
compound: COc1cccc(/C=C/C2=CC3(C)CC2(C)C(c2cccc(OC)c2)CC3=O)c1 (stereo not drawn)
testSystem: Cytochrome P450 2C19 (Homo sapiens) (UniProt P33261)
assignedClass: True
--
compound: COc1ccccc1/C=C/C1=CC2(C)CC1(C)C(c1ccccc1OC)CC2=O (stereo not drawn)
testSystem: Cytochrome P450 2C19 (Homo sapiens) (UniProt P33261)
assignedClass: True
--
compound: CCCCOC(OCCCC)[C@H](O)CSc1ccc2ccccc2c1
testSystem: Cytochrome P450 2C19 (Homo sapiens) (UniProt P33261)
assignedClass: True
--
compound: COC(=O)C/C=C/C(C)C(OC)c1ccccc1Br (stereo not drawn)
testSystem: Cytochrome P450 2C19 (Homo sapiens) (UniProt P33261)
assignedClass: False
--
compound: CCOC(=O)OCC1OC(C#Cc2ccc(F)cc2F)C=CC1OC(=O)OCC (stereo not drawn)
testSystem: Cytochrome P450 2C19 (Homo sapiens) (UniProt P33261)
assignedClass: False
